assay: chemical genetic growth profiling, strain panel (AID 1159580);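 further: tested at 20 µM; growth read once vehicle control cultures reached saturation at 30 °C; 1 = growth at the plate median or of vehicle wells; lower values mean less growth of the strain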; conditions: S. cerevisiae deletion strains, growth OD, locus YDR001C, strain nth1, hits give low values
Screen size: about 5,500 compounds; about 2,000 (36%) were called active. Another 18% or so got no clear call; they are omitted. Some of the results follow.
Sorting guide: entries reporting normalized growth beneath 1 go in the 1 (yes) pile, the rest go in the 0 (no) pile.

# compound, label
rows = [
    ("Cc1cc(C2CCCCC2)n(O)c(=O)c1", "1 (yes)"),
    ("Oc1ccc2c(c1)OCC1(O)Cc3cc(O)c(O)cc3C21 (stereo not drawn)", "0 (no)"),
    ("CN(C)c1ccc2nc3ccc(=[N+](C)C)cc-3sc2c1", "0 (no)"),
    ("CCCCCCCCCCCC1=C(O)C(=O)C=C(O)C1=O", "1 (yes)"),
    ("O=C1[O][Bi][O]c2ccccc21", "0 (no)"),
]

* * *

test: chemical genetic growth profiling, strain panel (AID 1159580); settings: S. cerevisiae deletion strains, growth OD, locus YHR079C, strain IRE1, hits give low values
Hit rate of the full screen: of about 5,500 compounds, about 2,000 (36%) were called active. Another 18% or so got no clear call; they are omitted. This is one part of the list.
# normalized growth binned as 0 = under 0.9, 1 = from 0.9 up to 1, 2 = 1 and over

# molecule, label
measured = [
    ("CC1(C)O[C@H]2CC(=O)OC[C@]23[C@H]2CC[C@@]4(C)[C@H](c5ccoc5)OC(=O)[C@H]5O[C@]54[C@]2(C)C(=O)C[C@@H]13", 2),
    ("CCC(=O)O[C@H](CC(=O)O)C[N+](C)(C)C", 2),
    ("O=C1Nc2ccccc2/C1=C\\c1ccc(Cl)cc1", 0),
    ("CC1O[C@@H](Oc2c(-c3ccc(O)c(O)c3)oc3cc(O)cc(O)c3c2=O)[C@H](O)[C@H](O)[C@H]1O (some centres undefined)", 1),
]

* * *

test: chemical genetic growth profiling, strain panel (AID 1159580); details: S. cerevisiae deletion strains, growth OD, locus YJR066W, strain TOR1, hits give low values
Screen size: about 5,500 compounds; about 2,000 (36%) were called active. Another 18% or so got no clear call; they are omitted. This is one part of the list.

# molecule, normalized growth
rows = [
    ("Cc1ccc(C)n1-c1ccc(/C=C2/C(=O)Nc3ccccc32)cc1", "0.794 (inactive)"),
    ("C[C@@H]1CC[C@@]2(NC1)O[C@H]1C[C@H]3C4CC=C5C[C@@H](O)CC[C@]5(C)C4CC[C@]3(C)C1[C@@H]2C (stereo not given in full)", "0.985 (inactive)"),
    ("OC(COc1ccc(F)cc1)(c1ccccc1)c1ccccc1", "1.15 (inactive)"),
    ("CC(C)c1c(O)c(-c2cc3c(c(C(C)C)c2O)CCC2C(C)(C)CCC[C@]32C)cc2c1CCC1C(C)(C)CCC[C@]21C (stereo not given in full)", "0.945 (inactive)"),
    ("O=C(O[C@@H]1Cc2c(O)cc(O)cc2O[C@@H]1c1cc(O)c(=O)c2c(O)c(O)cc([C@H]3Oc4cc(O)cc(O)c4C[C@H]3OC(=O)c3cc(O)c(O)c(O)c3)c2c1)c1cc(O)c(O)c(O)c1", "0.96 (inactive)"),
]

* * *

normalized growth overview
experiment: chemical genetic growth profiling, strain panel (AID 1159580);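 further: tested at 20 µM; growth read once vehicle control cultures reached saturation at 30 °C; 1 = growth at the plate median or of vehicle wells; lower values mean less growth of the strain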; conditions: S. cerevisiae deletion strains, growth OD, locus YLR058C, strain SHM2, hits give low values
About 2,000 (36%) of roughly 5,500 compounds were called active. Not shown: some 18% with an inconclusive outcome. This is one part of the list.
experimentalEndpoint: normalized growth

# compound, observedMeasurement
data = [
    ("CC(C)(O)[C@@H]1Cc2cc3ccc(=O)oc3cc2O1", 1.01),
    ("CC(C)(C)NCC(O)c1cc(Cl)c(N)c(Cl)c1 (stereo not drawn)", 1.02),
    ("CO[C@@]1(NC(=O)C(C(=O)O)c2ccc(O)cc2)C(=O)N2C(C(=O)O)=C(CSc3nnnn3C)CO[C@@H]21 (stereo partly drawn)", 1.01),
    ("NC(N)=NC(=O)c1nc(Cl)c(N2CCCCCC2)nc1N", 1.02),
    ("CCC1OC(=O)[C@H](C)C(=O)[C@H](C)[C@@H](OC2O[C@H](C)C[C@H](N(C)C)[C@H]2O)[C@](C)(OC)C2(CCCn3cnc(-c4cccnc4)c3)C[C@@H](C)C(=O)[C@H](C)[C@H]3N(C2)C(=O)O[C@]13C (stereo partly drawn)", 1),
    ("CC1=CC(=O)C2=C(C)CC[C@@H]3[C@H](OC(=O)[C@H]3C)[C@@H]12", 1),
    ("NC(=O)NCC(N)C(=O)O (stereo not drawn)", 1.02),
    ("COC(=O)C1OC(=O)C2OC23C1(C)CCC1C2(C)C(OC(C)=O)CC(OC(C)=O)C(C)(C)C2CC(=O)C13C (stereo not drawn)", 1),
]

* * *

assay: chemical genetic growth profiling, strain panel (AID 1159580);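 further: tested at 20 µM; growth read once vehicle control cultures reached saturation at 30 °C; 1 = growth at the plate median or of vehicle wells; lower values mean less growth of the strain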; conditions: S. cerevisiae deletion strains, growth OD, locus YJL168C, strain set2, hits give low values
Among all 5,500 compounds or so, about 2,000 (36%) were called active. Not shown: some 18% with an inconclusive outcome. The list shows a part of the results.

# compound, normalized growth
records = [
    ("O=c1c(O)c(-c2ccc(O)cc2O)oc2cc(O)cc(O)c12", 1),
    ("CC1CC[C@@]2(OC1)O[C@H]1CC3C4CC[C@@H]5CC(=O)CC[C@]5(C)C4CC[C@]3(C)[C@H]1[C@@H]2C (some centres undefined)", 0.986),
    ("NC(=O)CN1CCCC1=O", 1),
    ("CC1CCC2(OC1)OC1CC3C4CC[C@H]5C[C@@H](O)CC[C@]5(C)C4CC(=O)[C@]3(C)C1C2C (some centres undefined)", 0.986),
    ("CC1CC[C@]2(NC1)O[C@H]1CC3C4CC[C@H]5C[C@@H](O)CC[C@]5(C)C4CC[C@]3(C)[C@H]1[C@@H]2C (some centres undefined)", 0.0986),
    ("CCC1OC(=O)[C@H](C)C(=O)[C@H](C)[C@@H](OC2O[C@H](C)C[C@H](N(C)C)[C@H]2O)[C@](C)(OC)C2(CCCn3cnc(-c4cccnc4)c3)C[C@@H](C)C(=O)[C@H](C)[C@H]3N(C2)C(=O)O[C@]13C (some centres undefined)", 0.999),
    ("CCC(N)C(O)c1ccc(O)c(O)c1 (centres undefined)", 0.99),
    ("C[C@@H]1CC[C@@]2(OC1)O[C@H]1CC3C4CC[C@H]5C[C@@H](O)CC[C@]5(C)C4CC[C@]3(C)[C@H]1[C@@H]2C (some centres undefined)", 0.977),
    ("O=c1c(O)c(-c2ccc(O)c(O)c2)oc2cc(O)cc(O)c12", 1.02),
]

* * *

assay: chemical genetic growth profiling, strain panel (AID 1159580);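 further: tested at 20 µM; growth read once vehicle control cultures reached saturation at 30 °C; 1 = growth at the plate median or of vehicle wells; lower values mean less growth of the strain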; conditions: S. cerevisiae deletion strains, growth OD, locus YDR159W, strain sac3
The whole screen tested about 5,500 compounds, of which about 2,000 (36%) were called active. About 18% were inconclusive and are not listed. Rule as the data show it: active = normalized growth mostly below about 0.91 (no sharp cut-off); inconclusive = no clear call, values can overlap the other calls; inactive = mostly above about 0.92. The list shows a part of the results.
Outcome codes: T = active, F = inactive

# compound, label
records = [
    ("NC(=O)NCCCC(N)C(=O)O (stereo unspecified)", "F"),
    ("O=c1c(O)c(-c2ccc(O)c(O)c2)oc2c(O)c(O)cc(O)c12", "T"),
    ("C[C@@H]1O[C@@H](OC[C@H]2OC(Oc3c(-c4ccc(OCCO)c(OCCO)c4)oc4cc(OCCO)cc(O)c4c3=O)[C@H](O)[C@@H](O)[C@@H]2O)[C@H](O)[C@H](O)[C@H]1O (stereo partly specified)", "F"),
    ("CC1CC[C@@]2(OC1)O[C@H]1CC3C4CC[C@@H]5C[C@@H](O)CC[C@]5(C)C4CC[C@]3(C)[C@H]1[C@@H]2C (stereo partly specified)", "F"),
    ("N#Cc1nn(-c2c(Cl)cc(C(F)(F)F)cc2Cl)c(N)c1S(=O)C(F)(F)F (stereo unspecified)", "F"),
    ("C=C[C@H]1CN2CC[C@H]1C[C@@H]2[C@@H](OC(=O)OCC)c1ccnc2ccc(OC)cc12", "F"),
    ("CC1(C)C(=O)C=C[C@@]2(C)C1CC(=O)[C@]1(C)C2CC[C@@]2(C)[C@H](c3ccoc3)OC(=O)[C@H]3O[C@]321 (stereo partly specified)", "F"),
    ("COc1cc(OC)c2c(=O)c(OC)c(-c3ccc(OC)c(OC)c3)oc2c1", "F"),
    ("COc1ccc2c(c1)CCC1C2CC[C@@]2(C)C1CC[C@@H]2O (stereo partly specified)", "T"),
    ("C=C1CCC2(OC1)OC1CC3C4CC=C5CC(O)CC(O)C5(C)C4CCC3(C)C1C2C (stereo unspecified)", "F"),
    ("NC(N)=NC(=O)c1nc(Cl)c(N)nc1N", "F"),
]
